# Test system: SK-MEL-28 melanoma
# procedureText: NCI tumour cell line growth inhibition, 48 h
Note to self: values exactly at 30 µM are yes. So TGI at or above 30 µM is yes, below is no.

{"compound": "CCOC(=O)C1CN(C2CC2)CCC1=O (stereo not drawn)", "categoryLabel": "yes"}
{"compound": "CC1=CC(=O)CC2(C)CCC(C(C)CC(=O)CC(C)C)CC12 (stereo not drawn)", "categoryLabel": "yes"}
{"compound": "O=c1oc2ccc(Br)cc2c(=O)n1-c1ccc(F)cc1F", "categoryLabel": "no"}
{"compound": "Cn1c(=O)c2c(ncn2CC(=O)Nc2ccc(-c3ccccc3)nn2)n(C)c1=O", "categoryLabel": "yes"}
{"compound": "O=C(CCCN1CCC2(CC1)C(=NC1CCCCC1)NC(=O)N2c1ccccc1)c1ccc(F)cc1", "categoryLabel": "yes"}

Switching to the query record.
Prompt line: Given the entry "COc1ccccc1N1CCN(CCCNC(=O)c2cc(Cl)c(N)c(Cl)c2)CC1" , answer whether its TGI meets or surpasses 30 µM.
Response line: yes
